# EXPERIMENTAL SYSTEM: full length XPA protein (Homo sapiens)
# Sequence (P23025 whole entry): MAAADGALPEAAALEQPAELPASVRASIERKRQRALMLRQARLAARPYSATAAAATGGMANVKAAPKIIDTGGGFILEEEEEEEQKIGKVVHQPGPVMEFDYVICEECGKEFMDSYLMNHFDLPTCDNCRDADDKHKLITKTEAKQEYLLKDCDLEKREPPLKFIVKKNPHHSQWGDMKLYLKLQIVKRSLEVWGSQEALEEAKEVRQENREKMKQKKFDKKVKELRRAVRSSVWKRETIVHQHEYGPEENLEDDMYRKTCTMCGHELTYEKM
# ASSAY: biochemical
# CONDITION PARAMETERS: IC50 (μM), EMSA, 32P labeled 30 bp duplex DNA containing a single 1,2 dGpG cisplatin adduct, several values in a cell = separate determinations
OBSERVATION TYPE: IC50 (µM)

> print(dat)
                                   compound                     experimental.system  reading.unit  inequality.sign  val
1  COc1cccc(NC(=O)c2cc(-c3ccc(/C=C4\C(=O)N(c5cccc(C#N)c5)N=C4C)o3)ccc2Cl)c1  full length XPA protein (Homo sapiens)            µM                >   25
2  COc1ccc(NC(=O)c2cc(-c3ccc(CC4C(=O)N(c5cccc(C(=O)O)c5)N=C4C)o3)ccc2Cl)cc1OC (stereo not shown)  full length XPA protein (Homo sapiens)            µM                =   11
3  COc1cccc(CNC(=O)c2cc(-c3ccc(CC4C(=O)N(c5ccc(C(=O)O)cc5)N=C4C)o3)ccc2Cl)c1 (stereo not shown)  full length XPA protein (Homo sapiens)            µM                =   40
4  COc1cccc(NC(=O)c2ccc(/C=C3\C(=O)N(c4cccc(C(=O)O)c4)N=C3C)o2)c1 [NG-02-162/ NG-02-162C]  full length XPA protein (Homo sapiens)            µM                =   35
5  CC1=NN(c2cccc(C(=O)O)c2)C(=O)C1Cc1ccc(-c2ccc(Cl)c(C(=O)NCC3CC3)c2)s1 (stereo not shown)  full length XPA protein (Homo sapiens)            µM                =   40
6  CC1=NN(c2cccc(C(=O)O)c2)C(=O)/C1=C\c1ccc(-c2ccc(Cl)c(C(=O)NCc3ccccc3Cl)c2)o1  full length XPA protein (Homo sapiens)            µM                =   40
7  O=C(O)c1cccc(N2N=C(C(F)(F)F)C(Cc3ccc(-c4ccc(Cl)c(C(=O)NCC5CC5)c4)o3)C2=O)c1 (stereo not shown)  full length XPA protein (Homo sapiens)            µM                =   40

----------
# EXPERIMENTAL SYSTEM: full length XPA protein (Homo sapiens);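 also: XPA expressed in Sf9 cells, preincubated with compound on ice before adding DNA, complex resolved on native polyacrylamide gel at 4 °C, PhosphorImager band intensity, binding inhibition versus DMSO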
# ASSAY: biochemical
# CONDITION PARAMETERS: IC50 (μM), EMSA, 32P labeled 30 bp duplex DNA containing a single 1,2 dGpG cisplatin adduct, several values in a cell = separate determinations
OBSERVATION TYPE: IC50 (µM)

> print(dat)
                                   compound                     experimental.system  observation.type  inequality.sign  val
1  CCOC(=O)c1cccc(N2N=C(C(F)(F)F)C(=Cc3ccc(-c4ccc(Cl)c(C(=O)Nc5cccc(OC)c5)c4)o3)C2=O)c1 (mixture of isomers) [NG-04-311]  full length XPA protein (Homo sapiens)              IC50                >   50
2  CCOC(=O)c1cccc(N2N=C(C)C(=Cc3ccc(C(=O)O)o3)C2=O)c1 [NG-02-154]  full length XPA protein (Homo sapiens)              IC50                =   45
3  CCOC(=O)c1cccc(N2N=C(C(F)(F)F)/C(=C/c3ccc(-c4ccc(Cl)c(C(=O)O)c4)o3)C2=O)c1 [NG-04-300]  full length XPA protein (Homo sapiens)              IC50                =   40
4  CC1=NN(c2cccc(C(=O)O)c2)C(=O)C1=Cc1ccc(-c2ccc(Cl)c(C(=O)NCC3CCCCC3)c2)o1 (mixture of isomers) [NG-04-274]  full length XPA protein (Homo sapiens)              IC50                =   35
